Quick reference: logP-neutral of the listed items.
Protocol text: log P by HPLC on reversed-phase column (C18), EEC Directive 79/831 Annex V.A8
Condition details: pH 7.8
Hey, just send me the number, nothing else.

Take a look at these entries with their results.
CCSc1ccc(NC(=O)C2CC2)nc1-c1nc2cc(C(F)(F)F)ncc2n1C [Example 1] :: 2.79
CC[S+]([O-])c1ccc(NC(C)=O)nc1-c1nc2cc(C(F)(F)F)ncc2n1C (stereo not shown) [Example 9] :: 1.97
CCC(=O)Nc1ccc(S(=O)(=O)CC)c(-c2nc3cc(C(F)(F)F)ncc3n2C)n1 [Example 13] :: 2.28

Measured logP-neutral, CCS(=O)(=O)Nc1ccc(S(=O)(=O)CC)c(-c2nc3cc(C(F)(F)F)ncc3n2C)n1 [Example 59] : 0.90

Measured logP-neutral, CCS(=O)(=O)c1ccc(NC(=O)C(C)CSC)nc1-c1nc2cc(C(F)(F)F)ncc2n1C (stereo not shown) [Example 65] : 2.78

Measured logP-neutral, CCS(=O)(=O)c1ccc(NC(=O)CS(C)(=O)=O)nc1-c1nc2cc(C(F)(F)F)ncc2n1C [Example 72] : 1.92

Measured logP-neutral, CCS(=O)(=O)c1ccc(NC(=O)C[S+](C)[O-])nc1-c1nc2cc(C(F)(F)F)ncc2n1C (stereo not shown) [Example 70] : 1.68

Measured logP-neutral, CCNC(=S)c1ccc(S(=O)(=O)CC)c(-c2nc3cc(C(F)(F)F)ncc3n2C)n1 [Example 35] : 3.14

----------
Quick reference: logP-acidic of the listed items.
Protocol text: log P by HPLC on reversed-phase column (C18), EEC Directive 79/831 Annex V.A8
Condition details: pH 2.7

Take a look at these entries with their results.
CCSc1ccc(NC(=O)CC)nc1-c1nc2cc(C(F)(F)F)ncc2n1C :: 2.73
CCS(=O)(=O)c1ccc(NC(=O)COC)nc1-c1nc2cc(C(F)(F)F)ncc2n1C :: 2.22
CCS(=O)(=O)c1ccc(NC(=O)CS(C)(=O)=O)nc1-c1nc2cc(C(F)(F)F)ncc2n1C :: 1.87

Measured logP-acidic, CC[S+]([O-])c1ccc(NC(C)=O)nc1-c1nc2cc(C(F)(F)F)ncc2n1C (centres unmarked) : 2.02

Measured logP-acidic, CCS(=O)(=O)c1ccc(NC(=O)C(C)CS(C)(=O)=O)nc1-c1nc2cc(C(F)(F)F)ncc2n1C (centres unmarked) : 2.02

Measured logP-acidic, CCCOc1ccc(S(=O)(=O)CC)c(-c2nc3cc(C(F)(F)F)ncc3n2C)n1 : 3.37

Measured logP-acidic, CCSc1ccc(NC(=O)c2ccccc2)nc1-c1nc2cc(C(F)(F)F)ncc2n1C : 3.36

Measured logP-acidic, CCC(=O)Nc1ccc([S+]([O-])CC)c(-c2nc3cc(C(F)(F)F)ncc3n2C)n1 (centres unmarked) : 2.33

----------
Protocol text: log P by HPLC on reversed-phase column (C18), EEC Directive 79/831 Annex V.A8
Condition details: reversed-phase HPLC column (C18), pH 7.8, log P (neutral), preparation examples; neutral range, pH 7.8
Quick reference: chromatographic logP of the listed items.
Hey, just send me the number, nothing else.

Take a look at these entries with their results.
CCS(=O)(=O)c1ccc(/C=C/C2CC2)nc1-c1nc2cc(C(F)(F)F)ncc2n1C :: 3.24
CCS(=O)(=O)c1ccc(F)nc1-c1nc2cc(C(F)(F)F)ncc2n1C :: 2.3

Proceeding to the next compound to report its chromatographic logP.
Measured chromatographic logP, CCS(=O)(=O)c1ccc(N)nc1-c1nc2cc(C(F)(F)F)ncc2n1C : 1.62

----------
Quick reference: efficacy in % of the listed items.
System: Phaedon cochleariae
Protocol text: Phaedon cochleariae spray test
Assay type: in vivo
Condition details: 500 g/ha, after 7 days, beetle larvae killed
Return type: number; implicit unit %.

Take a look at these entries with their results.
CCS(=O)(=O)c1ccc(NC(C)=O)nc1-c1nc2cc(C(F)(F)C(F)(F)F)ncc2n1C :: 100
CCS(=O)(=O)c1ccc(NN)nc1-c1nc2cc(C(F)(F)F)ncc2n1C :: 100
CCC(=O)Nc1ccc([S+]([O-])CC)c(-c2nc3cc(C(F)(F)F)ncc3n2C)n1 (stereo not drawn) :: 100
CCS(=O)(=O)c1ccc(NC(=O)c2cccnc2)nc1-c1nc2cc(C(F)(F)F)ncc2n1C :: 100
CCCOc1ccc(S(=O)(=O)CC)c(-c2nc3cc(C(F)(F)F)ncc3n2C)n1 :: 100
CC[S+]([O-])c1ccc(NC(C)=O)nc1-c1nc2cc(C(F)(F)F)ncc2n1C (stereo not drawn) :: 83
CCS(=O)(=O)c1ccc(NC(=O)c2ccccc2)nc1-c1nc2cc(C(F)(F)F)ncc2n1C :: 83
CCS(=O)(=O)c1ccc(NC(=O)CC2CC2)nc1-c1nc2cc(C(F)(F)F)ncc2n1C :: 100

Measured efficacy in %, CCS(=O)(=O)c1ccc(NC(=O)C(F)(F)C(F)(F)F)nc1-c1nc2cc(C(F)(F)F)ncc2n1C : 100

Measured efficacy in %, CCSc1ccc(NC(=O)C(F)(F)F)nc1-c1nc2cc(C(F)(F)F)ncc2n1C : 100

Measured efficacy in %, CCS(=O)(=O)c1ccc(NC(=O)c2cscn2)nc1-c1nc2cc(C(F)(F)F)ncc2n1C : 100

Measured efficacy in %, CCS(=O)(=O)c1ccc(NC(=O)Cc2ccccc2)nc1-c1nc2cc(C(F)(F)F)ncc2n1C : 100

----------
Protocol text: log P by HPLC on reversed-phase column (C18), EEC Directive 79/831 Annex V.A8
Condition details: pH 2.7
Quick reference: logP-acidic of the listed items.
Hey, just send me the number, nothing else.

Measured logP-acidic, CCS(=O)(=O)c1ccc([S+]([O-])Cc2ccccc2)nc1-c1nc2cc(C(F)(F)F)ncc2n1C (centres unmarked) : 2.66

Measured logP-acidic, CCS(=O)(=O)c1ccc(S(=O)(=O)NC)nc1-c1nc2cc(C(F)(F)F)ncc2n1C : 2.15

Measured logP-acidic, CCS(=O)(=O)c1ccc(NC(=O)C2CC2)nc1-c1nc2cc(C(F)(F)F)ncc2n1C : 2.43

Measured logP-acidic, CCS(=O)(=O)c1ccc(NC(=O)C(C)C[S+](C)[O-])nc1-c1nc2cc(C(F)(F)F)ncc2n1C (centres unmarked) : 1.81

Measured logP-acidic, CCS(=O)(=O)c1ccc(N)nc1-c1nc2cc(C(F)(F)C(F)(F)F)ncc2n1C : 2.14

----------
Protocol text: log P by HPLC on reversed-phase column (C18), EEC Directive 79/831 Annex V.A8
Condition details: pH 2.7
Endpoint: logP-acidic
Hey, just send me the number, nothing else.

CCS(=O)(=O)c1ccc(NC(=O)C(F)F)nc1-c1nc2cc(C(F)(F)F)ncc2n1C [Example 24] :: 2.34
CCS(=O)(=O)c1ccc(NC(=O)CSC)nc1-c1nc2cc(C(F)(F)F)ncc2n1C [Example 53] :: 2.51
CCS(=O)(=O)c1ccc(NC(=O)c2ccccc2)nc1-c1nc2cc(C(F)(F)F)ncc2n1C [Example 20] :: 2.98

Proceeding to the next molecule to report its logP-acidic.
Measured logP-acidic, CCS(=O)(=O)Nc1ccc(S(=O)(=O)CC)c(-c2nc3cc(C(F)(F)F)ncc3n2C)n1 [Example 59] : 2.08

----------
Quick reference: kill in % of the listed items.
Test system: Lucilia cuprina
Protocol text: Lucilia cuprina test
Assay type: in vivo
Condition details: 100 ppm, after 2 days, L1 larvae
Return type: number; implicit unit %.

Take a look at these entries with their results.
CCS(=O)(=O)c1ccc(NC(=O)C2CC2)nc1-c1nc2cc(C(F)(F)F)ncc2n1C :: 90
CCS(=O)(=O)c1ccc(NC(=O)C(F)(F)C(F)F)nc1-c1nc2cc(C(F)(F)F)ncc2n1C :: 100
CCOc1ccc(S(=O)(=O)CC)c(-c2nc3cc(C(F)(F)F)ncc3n2C)n1 :: 100

Proceeding to the next compound to report its kill in %.
Measured kill in %, CCS(=O)(=O)c1ccc(N)nc1-c1nc2cc(C(F)(F)F)ncc2n1C : 100

----------
Protocol text: log P by HPLC on reversed-phase column (C18), EEC Directive 79/831 Annex V.A8
Condition details: LC-MS acidic range, pH 2.7 (HCOOH), C18, 55° C.
Description: Called log P (HCOOH) in the table. Called log P (neutral) in the table.
Endpoint: logP-acidic
Hey, just send me the number, nothing else.

Take a look at these entries with their results.
CCS(=O)(=O)c1ccc(N(C)C)nc1-c1nc2cc(C(F)(F)F)ncc2n1C :: 2.55
CCNc1ccc(S(=O)(=O)CC)c(-c2nc3cc(C(F)(F)F)ncc3n2C)n1 :: 2.37
CCS(=O)(=O)c1ccc(NC)nc1-c1nc2cc(C(F)(F)F)ncc2n1C :: 2.05

Measured logP-acidic, CCS(=O)(=O)c1ccc(N(C)N)nc1-c1nc2cc(C(F)(F)F)ncc2n1C : 1.96

Measured logP-acidic, CCS(=O)(=O)c1ccc(NN)nc1-c1nc2cc(C(F)(F)F)ncc2n1C : 1.39

The reported numbers originate from patent US10654845B2.
